- methodNotes: Selectivity index, ratio of IC50 for human skin fibroblasts to IC50 for promastigote stage of Leishmania mexicana Bel21
Below, each entry is listed alongside its reported Ratio IC50.

Answered cases to consult:
C=C1C(O)[C@@]23CC[C@H](C(=C)C)[C@@](C)(CCC(=O)O)[C@@H]2CC[C@H]1C3 (some centres undefined) | <6.9
C=C(C)[C@H]1CC[C@@]23C[C@H](CC[C@H]2[C@]1(C)CCC(=O)O)C(CSCc1ccccc1)C3=O (some centres undefined) | 1.9
C=C1C(=O)[C@@]23CC[C@H](C(=C)C)[C@@](C)(CCC(=O)OCc4ccccc4)[C@@H]2CC[C@H]1C3 | 3.1

// next entry
Ratio IC50 lookup needed for C=C1C(=O)[C@@]23CC[C@H](C(=C)C)[C@@](C)(CCC(=O)NC4CCCCC4)[C@@H]2CC[C@H]1C3 , thanks.
6

====

Below, each entry is listed alongside its reported pIC50.
- Test system: Trypanosoma cruzi
- methodNotes: Antitrypanosomal activity against epimastigote stage of Trypanosoma cruzi CL Brener assessed as growth inhibition after 5 days by MTT assay
- Format: functional
- appliedConditions: 120 h
Friendly reminder that pIC50 comes from taking -log10 of the concentration in mol/L.

C=C1C(=O)[C@@]23CC[C@H](C(C)(O)CO)[C@@](C)(CCC(=O)O)[C@@H]2CC[C@H]1C3 (stereo partly specified) | 4.37
C=C1C(=O)[C@@]23CC[C@H](C(=C)C)[C@@](C)(CCC(=O)OCC)[C@@H]2CC[C@H]1C3 | 5.57
C=C1C(=O)[C@@]23CC[C@H](C(=C)C)[C@@](C)(CCC(=O)O)[C@@H]2CC[C@H]1C3 | 4.65
C=C1C(=O)[C@@]23CC[C@H](C(=C)C)[C@@](C)(CCC(=O)OC)[C@@H]2CC[C@H]1C3 | 4.78
C=C1C(=O)[C@@]23CC[C@H](C(=C)C)[C@@](C)(CCC(=O)OCCCC)[C@@H]2CC[C@H]1C3 | 5.38
C=C1C(=O)[C@@]23CC[C@H](C(=C)C)[C@@](C)(CCC(=O)NC4CCCCC4)[C@@H]2CC[C@H]1C3 | 5.55

pIC50 lookup needed for C=C1C(=O)[C@@]23CC[C@H](C(=C)C)[C@@](C)(CCC(=O)OC(C)C)[C@@H]2CC[C@H]1C3 , thanks.
5.39

pIC50 lookup needed for C=C1C(=O)[C@@]23CC[C@H](C(=C)C)[C@@](C)(CCC(=O)OC4CCCCC4)[C@@H]2CC[C@H]1C3 , thanks.
5.26

pIC50 lookup needed for C=C(C)[C@H]1CC[C@@]23C[C@H](CC[C@H]2[C@]1(C)CCC(=O)O)C(CSCc1ccccc1)C3=O (stereo partly specified) , thanks.
4.41

pIC50 lookup needed for C=C1C(=O)[C@@]23CC[C@H](C(=C)C)[C@@](C)(CCC(=O)OCc4ccccc4)[C@@H]2CC[C@H]1C3 , thanks.
5.39

pIC50 lookup needed for C=C1C(=O)[C@@]23CC[C@H](C(=C)C)[C@@](C)(CCC(=O)OCCC)[C@@H]2CC[C@H]1C3 , thanks.
5.51

====

- methodNotes: Selectivity index, ratio of IC50 for human skin fibroblasts to IC50 for promastigote stage of Leishmania mexicana Bel21
Below, each entry is listed alongside its reported Ratio IC50.
Reply: number alone, nothing else.

Answered cases to consult:
C=C1C(=O)[C@@]23CC[C@H](C(=C)C)[C@@](C)(CCC(=O)OCCCC)[C@@H]2CC[C@H]1C3 | 5.8
C=C1C(=O)[C@@]23CC[C@H](C(C)(O)CO)[C@@](C)(CCC(=O)O)[C@@H]2CC[C@H]1C3 (stereo not given in full) | 0.6
C=C1C(=O)[C@@]23CC[C@H](C(=C)C)[C@@](C)(CCC(=O)OCC)[C@@H]2CC[C@H]1C3 | 2.3

// next entry
Ratio IC50 lookup needed for C=C1C(=O)[C@@]23CC[C@H](C(=C)C)[C@@](C)(CCC(=O)OC)[C@@H]2CC[C@H]1C3 , thanks.
3.3
